Could you please report measured ED25 PR (dose required to produce a 25% increase) for the items listed next?
# Experimental system: cardiac sodium channel (Rattus norvegicus, UniProt P15389)
# Sequence (P15389 whole entry): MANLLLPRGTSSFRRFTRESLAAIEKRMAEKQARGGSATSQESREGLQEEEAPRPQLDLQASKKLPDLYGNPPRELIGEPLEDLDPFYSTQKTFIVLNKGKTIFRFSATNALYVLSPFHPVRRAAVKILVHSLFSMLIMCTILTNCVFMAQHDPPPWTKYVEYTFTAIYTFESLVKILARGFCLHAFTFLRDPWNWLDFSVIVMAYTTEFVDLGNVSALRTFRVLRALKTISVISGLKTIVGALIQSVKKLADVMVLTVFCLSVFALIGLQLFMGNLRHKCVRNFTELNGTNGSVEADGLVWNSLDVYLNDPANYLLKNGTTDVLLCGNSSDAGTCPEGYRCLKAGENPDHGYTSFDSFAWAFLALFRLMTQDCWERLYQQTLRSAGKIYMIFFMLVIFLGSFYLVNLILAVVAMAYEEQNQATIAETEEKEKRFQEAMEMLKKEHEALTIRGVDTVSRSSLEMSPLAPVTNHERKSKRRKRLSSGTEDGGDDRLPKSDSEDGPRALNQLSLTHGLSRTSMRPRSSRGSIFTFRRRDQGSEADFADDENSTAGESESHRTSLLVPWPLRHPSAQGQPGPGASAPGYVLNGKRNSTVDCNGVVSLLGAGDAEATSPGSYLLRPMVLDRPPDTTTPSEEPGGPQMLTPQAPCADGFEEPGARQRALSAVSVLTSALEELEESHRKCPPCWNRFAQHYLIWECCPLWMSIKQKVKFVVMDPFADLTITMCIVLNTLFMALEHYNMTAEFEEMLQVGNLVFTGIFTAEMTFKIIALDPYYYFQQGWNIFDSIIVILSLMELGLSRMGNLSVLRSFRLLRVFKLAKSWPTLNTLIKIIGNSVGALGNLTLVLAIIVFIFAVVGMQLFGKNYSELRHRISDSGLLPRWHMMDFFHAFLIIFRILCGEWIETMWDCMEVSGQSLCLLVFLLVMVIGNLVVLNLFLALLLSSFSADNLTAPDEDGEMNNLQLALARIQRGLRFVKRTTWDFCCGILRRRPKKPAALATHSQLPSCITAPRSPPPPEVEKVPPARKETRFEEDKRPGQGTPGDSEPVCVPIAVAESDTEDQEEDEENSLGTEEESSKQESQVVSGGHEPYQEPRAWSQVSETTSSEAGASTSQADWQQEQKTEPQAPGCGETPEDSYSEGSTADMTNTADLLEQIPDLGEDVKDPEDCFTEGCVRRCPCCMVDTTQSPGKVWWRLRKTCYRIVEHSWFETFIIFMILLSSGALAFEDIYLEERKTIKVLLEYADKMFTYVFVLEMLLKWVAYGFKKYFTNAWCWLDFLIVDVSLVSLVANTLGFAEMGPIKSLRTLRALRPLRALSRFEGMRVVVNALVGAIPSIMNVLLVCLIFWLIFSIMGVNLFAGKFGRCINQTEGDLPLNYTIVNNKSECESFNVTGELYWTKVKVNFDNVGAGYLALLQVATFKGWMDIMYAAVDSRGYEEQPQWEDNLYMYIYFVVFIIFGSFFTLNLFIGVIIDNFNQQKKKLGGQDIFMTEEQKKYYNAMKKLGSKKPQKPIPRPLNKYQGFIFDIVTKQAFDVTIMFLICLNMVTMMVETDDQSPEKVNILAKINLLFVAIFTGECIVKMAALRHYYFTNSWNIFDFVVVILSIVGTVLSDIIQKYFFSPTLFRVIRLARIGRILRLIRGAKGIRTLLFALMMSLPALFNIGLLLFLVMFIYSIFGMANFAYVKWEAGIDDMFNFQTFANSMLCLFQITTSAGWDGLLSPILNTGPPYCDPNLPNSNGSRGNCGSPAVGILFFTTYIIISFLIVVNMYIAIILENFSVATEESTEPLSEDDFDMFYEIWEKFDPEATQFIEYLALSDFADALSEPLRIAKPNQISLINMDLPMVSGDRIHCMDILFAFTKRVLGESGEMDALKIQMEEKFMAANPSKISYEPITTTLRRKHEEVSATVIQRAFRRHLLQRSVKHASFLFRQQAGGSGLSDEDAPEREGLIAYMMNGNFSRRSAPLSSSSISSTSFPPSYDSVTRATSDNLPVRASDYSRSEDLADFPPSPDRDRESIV
# Assay text: ECG parameters in anesthetized rats (RSh, PR, QRS; cardiac sodium channel blockade)
# Type: in vivo
# Experimental context: i.v. bolus, P-R interval
Counter-ions that a name gives are not always drawn.
Please report the result as a number followed by the unit.

                                   compound  measurement
0  O=C(COc1ccc(Cl)c(Cl)c1)O[C@@H]1CCCC[C@H]1N1CCCC1 (relative stereo) [Compound #1, monohydrochloride]   17 µmol/kg
1  O=C(COc1cccc2ccccc12)O[C@@H]1CCCC[C@H]1N1CCCC1 (relative stereo) [Compound #2, monohydrochloride]   23 µmol/kg
2  O=C(COc1ccc(Cl)c(Cl)c1)O[C@@H]1CCCC[C@H]1N1CC2CCC(CC2)C1 (relative stereo) [Compound #3, monohydrochloride]  140 µmol/kg
3  O=C(COc1ccc(Cl)c(Cl)c1)O[C@@H]1CCCC[C@H]1N1CCOCC1 (relative stereo) [Compound #4, monohydrochloride]   44 µmol/kg
4  O=C(COc1ccc(Cl)c(Cl)c1)O[C@@H]1CCCC[C@H]1N1CCCCCC1 (relative stereo) [Compound #5, monohydrochloride]   43 µmol/kg
5  O=C(Cc1cccc2ccccc12)O[C@@H]1CCCC[C@H]1N1CCOCC1 (relative stereo) [Compound #8, monohydrochloride]   20 µmol/kg
6  O=C(Cc1ccc([N+](=O)[O-])cc1)O[C@@H]1CCCC[C@H]1N1CCOCC1 (relative stereo) [Compound #12, monohydrochloride]   64 µmol/kg
7  Cl.O=C(Cc1cccc2sccc12)O[C@@H]1CCCC[C@H]1N1CCOCC1 (racemic)  230 µmol/kg
8  O=C(CC1CCCCC1)O[C@@H]1CCCC[C@H]1N1CCCC1 (relative stereo) [Compound #7, monohydrochloride]   84 µmol/kg

Value of measured ED25 PR (dose required to produce a 25% increase) for the entry Cl.O=C(O[C@@H]1CCCC[C@H]1N1CCOCC1)c1cccc2ccccc12 (racemic) : 340 µmol/kg

====

# Experimental system: cardiac sodium channel (Rattus norvegicus, UniProt P15389)
# Assay text: Electrical stimulation of left ventricle in rats (iT, VFT; cardiac sodium channel blockade)
# Assay type: in vivo
# Experimental context: infusion rate for 25% increase from control; anesthetized rats
Counter-ions that a name gives are not always drawn.
Think of 6 µmol/kg/min as a floor: if ED25 iT (threshold current for capture) stands on it or above, it is met; beneath it, not met.

Recorded results for 3 compounds are shown here.
>>> df
                                   compound  label_class
0  O=C(COc1ccc(Cl)c(Cl)c1)O[C@@H]1CCCC[C@H]1N1CCCCCC1 (relative stereo) [Compound #5, monohydrochloride]      not met
1  Cl.O=C(Cc1csc2ccccc12)O[C@@H]1CCCC[C@H]1N1CCOCC1 (racemic) [Compound #6]          met
2  Cl.O=C(Cc1cccc2sccc12)O[C@@H]1CCCC[C@H]1N1CCOCC1 (racemic) [Compound #16]          met

Q: Textbook exercise: given the entry O=C(COc1cccc2ccccc12)O[C@@H]1CCCC[C@H]1N1CCCC1 (relative stereo) [Compound #2, monohydrochloride] , state whether its ED25 iT (threshold current for capture) is greater than or equal to 6 µmol/kg/min.
A: not met

Q: Textbook exercise: given the entry O=C(Cc1ccc([N+](=O)[O-])cc1)O[C@@H]1CCCC[C@H]1N1CCOCC1 (relative stereo) [Compound #12, monohydrochloride] , state whether its ED25 iT (threshold current for capture) is greater than or equal to 6 µmol/kg/min.
A: not met

====

# System: cardiac potassium channel
# Assay text: ECG parameters in anesthetized rats (QT; ancillary cardiac potassium channel blockade)
# Type: in vivo, rat
# Experimental context: i.v. bolus, Q-T interval
Counter-ions that a name gives are not always drawn.
Think of 40 µmol/kg as a floor: if ED25 QT (dose required to produce a 25% increase) stands on it or above, it is t; beneath it, f.

Recorded results for 3 compounds are shown here.
In [3]: df
Out[3]:
                                   compound  label_class
0  Cl.O=C(Cc1cccc2sccc12)O[C@@H]1CCCC[C@H]1N1CCOCC1 (racemic)            f
1  O=C(COc1ccc(Cl)c(Cl)c1)O[C@@H]1CCCC[C@H]1N1CC2CCC(CC2)C1 (relative stereo) [Compound #3, monohydrochloride]            t
2  O=C(COc1ccc(Cl)c(Cl)c1)O[C@@H]1CCCC[C@H]1N1CCCCCC1 (relative stereo) [Compound #5, monohydrochloride]            t

In the following, a different compound is considered.
Q: Textbook exercise: given the entry O=C(Cc1ccc2ccccc2c1)O[C@@H]1CCCC[C@H]1N1CCOCC1 (relative stereo) [Compound #9, monohydrochloride] , state whether its ED25 QT (dose required to produce a 25% increase) is greater than or equal to 40 µmol/kg.
A: f

====

# Experimental system: cardiac sodium channel (Rattus norvegicus)
# Assay text: Whole cell voltage clamp tests, single isolated adult rat cardiac cells
# Type: cell-based
# Experimental context: whole cell voltage clamp, isolated adult rat cardiac cells; read-out: EC50 (concentration required to produce a 50% reduction in sodium current)
Where a name gives a salt, the structure may show the parent alone.
Could you please report measured EC50 for the items listed next?

# count of solved cases: 2
In [3]: df
Out[3]:
                                   compound                       experimental_system  measurement
0  O=C(Cc1ccc2ccccc2c1)O[C@@H]1CCCC[C@H]1N1CCOCC1 (relative stereo) [Compound #9, monohydrochloride]  cardiac sodium channel (Rattus norvegicus)     > 100 µM
1  O=C(COc1ccc(Cl)c(Cl)c1)O[C@@H]1CCCC[C@H]1N1CCOCC1 (relative stereo) [Compound #4, monohydrochloride]  cardiac sodium channel (Rattus norvegicus)     > 500 µM

Value of measured EC50 for the entry O=C(Cc1ccc([N+](=O)[O-])cc1)O[C@@H]1CCCC[C@H]1N1CCOCC1 (relative stereo) [Compound #12, monohydrochloride] : > 300 µM
